experiment: Cytotoxicity against human SEM cells after 72 hrs by MTT assay; type: functional, cell-based
Response field label takes Condition met when IC50 is strictly below 300 nM and Condition not met in all other cases.

Field: example entries. Status: answers known.
CCOC(=O)c1sc2cccc(C)c2c1Nc1cc(OC)c(OC)c(OC)c1 | Condition not met
CCOC(=O)c1sc2cc(OC)ccc2c1Nc1cc(OC)c(OC)c(OC)c1 | Condition met
COC(=O)c1sc2ccccc2c1Nc1cc(OC)c(OC)c(OC)c1 | Condition met
COC(=O)c1sc2cccc(C)c2c1Nc1cc(OC)c(OC)c(OC)c1 | Condition not met
CCOC(=O)c1sc2ncccc2c1Nc1cc(OC)c(OC)c(OC)c1 | Condition not met
CCOC(=O)c1sc2cc(C)ccc2c1Nc1cc(OC)c(OC)c(OC)c1 | Condition met

Q: Hi there! Is IC50 for `COC(=O)c1sc2ncccc2c1Nc1cc(OC)c(OC)c(OC)c1` below 300 nM, do you know?
A: Condition not met

* * *

assay: Cytotoxicity against human SEM cells after 72 hrs by MTT assay; format: functional, cell-based
Each record here notes measured IC50.
Answer format: numeric, nM implied, no suffix.

Q: Any idea what IC50 was measured for `COC(=O)c1sc2c(OC)cccc2c1Nc1cc(OC)c(OC)c(OC)c1` ?
A: 2.3

Q: Another compound to look at: `COC(=O)c1sc2cc(C)ccc2c1Nc1cc(OC)c(OC)c(OC)c1`
A: 0.7

Q: Try `COC(=O)c1sc2nc(C)ccc2c1Nc1cc(OC)c(OC)c(OC)c1` next.
A: 0.5

Q: Consider next the compound `COC(=O)c1sc2c(C)cccc2c1Nc1cc(OC)c(OC)c(OC)c1` in the same way.
A: 1630

src = ChEMBL document CHEMBL2331329
